protocol summary: TOR pathway RTG branch CIT2 reporter changes – S. cerevisiae, GFP fusion, multiplex flow cytometry, primary screen (AID 1870);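 also: barcoded CIT2-GFP strain pooled with four other GFP strains with rapamycin as positive control; median GFP fluorescence per well over plate mean of DMSO wells so 100% = DMSO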
condition set: S. cerevisiae CIT2-GFP expression, 3 h, at 10 µM, active compounds read high
measured metric: percent response of DMSO control (%)
Give bare numbers, in %.

Before answering, review these 2 worked examples.
# compound, data value
data = [
    ("O=C(CSCc1ccccc1)NCCCN1CCOCC1", 104),
    ("COCCCNc1nc2c([nH]1)c(=O)[nH]c(=O)n2C", 105),
]

For every record below, what is its percent response of DMSO control?
1. O=C(NC(=S)Nc1ccc(N2CCN(C(=O)c3ccccc3)CC2)cc1)c1cccs1
2. Nc1nc2c(nc(SCc3ccccc3Br)n2C2OC(CO)C(O)C2O)c(=O)[nH]1 (stereo unspecified)
3. CC1(C)CC(=O)C2=C(C1)c1c(ccc3ccccc13)NC2c1ccco1 (stereo unspecified)
4. O=C(Cc1ccccc1)NNC(=O)Cc1ccccc1
5. CC(=O)c1c[nH]c2ccc(C)cc2c1=O
6. O=C(N1CCCC1)C12CC3CC(C1)CC(C(=O)N1CCCC1)(C3)C2

1: 116; 2: 101; 3: 93.9; 4: 102; 5: 97.7; 6: 101

Report percent response of DMSO control for every entry below.
1. c1ccc(CNc2ncnc3nc[nH]c23)cc1
2. COC(=O)c1[nH]c2ccc(C)cc2c1NC(=O)CN1CCc2cc(OC)c(OC)cc2C1
3. O=C(O)c1ccc(C(=O)C(=O)c2ccccc2)cc1

1. 90.8
2. 117
3. 109

----------
What inhibition was measured for each of the following?
tested on: Integrin beta-1 (Homo sapiens) + Integrin alpha-4 (Homo sapiens) (UniProt P13612+P05556)
Sequence (P05556 whole entry, looked up): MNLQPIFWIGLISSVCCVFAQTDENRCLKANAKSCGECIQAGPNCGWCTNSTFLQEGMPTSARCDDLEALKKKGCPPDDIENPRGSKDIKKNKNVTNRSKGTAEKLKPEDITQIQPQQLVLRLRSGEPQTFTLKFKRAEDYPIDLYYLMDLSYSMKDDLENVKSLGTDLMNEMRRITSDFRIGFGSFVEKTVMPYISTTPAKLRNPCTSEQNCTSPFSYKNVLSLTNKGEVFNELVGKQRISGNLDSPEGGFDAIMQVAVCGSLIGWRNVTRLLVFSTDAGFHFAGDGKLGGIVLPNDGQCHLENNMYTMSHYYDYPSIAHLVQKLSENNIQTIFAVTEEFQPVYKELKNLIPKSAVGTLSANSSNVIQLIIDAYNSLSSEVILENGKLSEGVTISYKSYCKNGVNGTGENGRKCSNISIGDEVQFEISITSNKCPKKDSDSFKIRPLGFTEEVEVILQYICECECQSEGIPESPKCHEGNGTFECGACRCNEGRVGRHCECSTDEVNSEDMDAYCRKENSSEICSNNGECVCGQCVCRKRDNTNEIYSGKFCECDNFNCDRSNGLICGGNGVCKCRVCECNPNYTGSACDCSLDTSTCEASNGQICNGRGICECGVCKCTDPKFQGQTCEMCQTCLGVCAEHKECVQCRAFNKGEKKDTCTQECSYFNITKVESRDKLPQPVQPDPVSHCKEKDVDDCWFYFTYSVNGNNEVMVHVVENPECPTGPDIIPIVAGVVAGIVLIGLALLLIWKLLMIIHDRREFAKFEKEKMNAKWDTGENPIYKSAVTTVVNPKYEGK
Sequence (P13612 whole entry, looked up): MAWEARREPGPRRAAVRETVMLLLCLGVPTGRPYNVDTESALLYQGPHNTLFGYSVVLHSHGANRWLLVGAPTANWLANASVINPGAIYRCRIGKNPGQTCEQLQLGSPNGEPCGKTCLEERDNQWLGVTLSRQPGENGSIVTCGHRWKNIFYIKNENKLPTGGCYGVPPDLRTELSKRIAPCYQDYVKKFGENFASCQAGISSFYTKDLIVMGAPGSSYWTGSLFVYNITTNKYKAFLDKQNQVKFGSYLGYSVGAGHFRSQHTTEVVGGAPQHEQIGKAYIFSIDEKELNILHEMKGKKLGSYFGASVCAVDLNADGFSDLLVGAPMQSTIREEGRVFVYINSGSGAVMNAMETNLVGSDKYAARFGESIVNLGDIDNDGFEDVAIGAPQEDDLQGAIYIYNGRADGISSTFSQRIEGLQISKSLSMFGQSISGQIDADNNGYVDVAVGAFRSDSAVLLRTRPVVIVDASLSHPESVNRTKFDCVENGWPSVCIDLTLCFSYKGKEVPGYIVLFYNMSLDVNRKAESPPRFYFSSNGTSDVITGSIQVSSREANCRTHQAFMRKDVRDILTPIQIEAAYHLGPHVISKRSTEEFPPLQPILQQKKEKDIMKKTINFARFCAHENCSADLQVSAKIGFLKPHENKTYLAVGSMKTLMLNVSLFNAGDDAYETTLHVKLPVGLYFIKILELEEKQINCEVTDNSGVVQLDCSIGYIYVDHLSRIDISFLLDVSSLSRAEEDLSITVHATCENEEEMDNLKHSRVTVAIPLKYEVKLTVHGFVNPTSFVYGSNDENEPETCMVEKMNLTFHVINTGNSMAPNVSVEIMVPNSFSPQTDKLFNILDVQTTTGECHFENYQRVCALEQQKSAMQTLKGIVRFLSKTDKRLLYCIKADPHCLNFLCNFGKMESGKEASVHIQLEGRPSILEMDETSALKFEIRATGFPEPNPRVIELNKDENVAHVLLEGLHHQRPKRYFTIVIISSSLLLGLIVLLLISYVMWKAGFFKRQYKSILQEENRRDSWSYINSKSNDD
protocol summary: alpha4beta1 integrin LIBS antibody binding reduction – U937 cells, HUTS-21 mAb, flow cytometry, validation set, VLA-4 allosteric modulator project, pilot screen (AID 2674);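 also: antibody binding induced by the VLA-4 ligand LDV present at three times its Kd; 0% = LDV ligand with antibody and no compound and 100% = antibody without LDV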
condition set: HUTS-21 LIBS mAb binding, at 6.7 µM, active compounds read high, binding induced by LDV ligand
Calls of active or inactive are those of the source.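 How the source made its calls: active means inhibition above 50%, about 3 SD of the validation set; inactive means the rest.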

Here are 3 molecules together with their reported answers.
# molecule, data value
measured = [
    ("CCN(CC)CCNC(=O)c1ccc(N)cc1", "-6.68% (inactive)"),
    ("O=c1cnn([C@@H]2O[C@H](CO)[C@@H](O)[C@H]2O)c(=O)[nH]1", "13.4% (inactive)"),
    ("COc1ccc(/C=C2\\CC/C(=C\\c3ccc(OC)c(OC)c3)C2=O)cc1OC", "-18.9% (inactive)"),
]

Please look at the items below and tell me inhibition for each one, in order.
1. C=CCNc1nc2c(c(=O)n(C)c(=O)n2C)n1CC(=C)C
2. CCN(CC)CCNC(=O)c1cc(Cl)c(N)cc1OC

1: -16.1% (inactive); 2: -28.5% (inactive)

Provide the reported inhibition of each entry below, same order.
1. CCOc1ccc(OCCSc2nc3ccccc3[nH]2)cc1
2. CCN1CCn2c3c(c4cc(Cl)ccc42)CCCC31 (stereo not drawn)
3. COc1ccccc1C(CCN(Cc1ccccc1)C(C)=O)c1ccco1 (stereo not drawn)

1: 16% (inactive); 2: -10.5% (inactive); 3: 8.4% (inactive)

Kindly give each listed record's inhibition.
1. O=C1c2ccccc2C(=O)N1/N=C/c1ccc(Oc2ccc([N+](=O)[O-])cn2)cc1
2. CC1(C)Oc2ccc(C#N)cc2[C@@H](N2CCCC2=O)[C@@H]1O
3. COc1cccc(NC(=O)C2CC(=O)OC23CCOC(C)(C)C3)c1 (stereo not drawn)
4. c1ccc(Cn2nnc3cnccc32)cc1
5. CNC(=O)Oc1ccc2c(c1)[C@]1(C)CCN(C)[C@@H]1N2C
6. COc1ccc(C2C3=C(CC(C)(C)CC3=O)N(C)C3=C2C(=O)CC(C)(C)C3)cc1

1: 12% (inactive); 2: 2.58% (inactive); 3: 19.1% (inactive); 4: 4.27% (inactive); 5: 5.69% (inactive); 6: 4.84% (inactive)
